Source: patent US20240325398A1

Test system: Jeko-1
experiment_description: Combination study, ATPLite 72 h, dose matrix (Synergy Score, CI50)
applied_conditions: combination with Compound 1
Where a name gives a salt, the structure may show the parent alone.
observed_property: Synergy Score inhibition

Answered examples (4):
compound	recorded_result
CN1CCc2c(c3ccccc3n2Cc2ccc(C(=O)NO)cc2)C1.Cl [Tubastatin A hydrochloride]	A1 (A1=0.0001 to <1)
NC1(c2ccc(-c3nc4ccn5c(=O)[nH]nc5c4cc3-c3ccccc3)cc2)CCC1 [MK-2206]	A2 (A2=1 to <3)
CS(=O)(=O)N1CCN(Cc2cc3nc(-c4cccc5[nH]ncc45)nc(N4CCOCC4)c3s2)CC1 [GDC-0941]	A1 (A1=0.0001 to <1)
CO[C@H]1C[C@@H]2CC[C@@H](C)[C@@](O)(O2)C(=O)C(=O)N2CCCC[C@H]2C(=O)O[C@H]([C@H](C)C[C@@H]2CC[C@@H](OCCO)[C@H](OC)C2)CC(=O)[C@H](C)/C=C(\C)[C@@H](O)[C@@H](OC)C(=O)[C@H](C)C[C@H](C)/C=C/C=C/C=C/1C [everolimus]	A2 (A2=1 to <3)

*Q* Hi! What's the reported Synergy Score inhibition for CC(=O)Nc1cccc(-n2c(=O)n(C3CC3)c(=O)c3c(Nc4ccc(I)cc4F)n(C)c(=O)c(C)c32)c1 [trametinib] on Jeko-1?
*A* A1 (A1=0.0001 to <1)

*Q* Give Synergy Score inhibition (Jeko-1) of the following compound: CCCCCCCCCCCCCCCCCCOP(=O)([O-])OC1CC[N+](C)(C)CC1 [perifosine]
*A* A1 (A1=0.0001 to <1)

*Q* # query: Synergy Score inhibition | item CC(C)C[C@H](NC(=O)[C@H](CCc1ccccc1)NC(=O)CN1CCOCC1)C(=O)N[C@@H](Cc1ccccc1)C(=O)N[C@@H](CC(C)C)C(=O)[C@@]1(C)CO1 [carfilzomib] | system: Jeko-1
*A* A1 (A1=0.0001 to <1)

*Q* Recorded Synergy Score inhibition for COc1ccc(-c2ccc3c(N4CCOC[C@@H]4C)nc(N4CCOC[C@@H]4C)nc3n2)cc1CO [AZD 8055] with Jeko-1, please?
*A* A2 (A2=1 to <3)

*Q* # returns recorded Synergy Score inhibition (system: Jeko-1) for COc1cccc2c1C(=O)c1c(O)c3c(c(O)c1C2=O)C[C@@](O)(C(=O)CO)C[C@@H]3O[C@H]1C[C@H](N)[C@H](O)[C@H](C)O1 [Doxorubicin HCl]
*A* A1 (A1=0.0001 to <1)

*Q* Reported Synergy Score inhibition for Jeko-1, given O=C(NOC[C@H](O)CO)c1ccc(F)c(F)c1Nc1ccc(I)cc1F [PD0325901] ?
*A* A1 (A1=0.0001 to <1)

*Q* API: value(readout=Synergy Score inhibition, system=Jeko-1) for record O=C(Nc1ccc2[nH]nc(-c3ccncc3)c2c1)[C@@H]1CCN(CC(=O)N2CCN(c3ccc(-c4ncccn4)cc3)CC2)C1 [SCH772984]
*A* A1 (A1=0.0001 to <1)

*Q* // map Nc1cccc2c1CN(C1CCC(=O)NC1=O)C2=O (stereo not shown) [lenalidomide] to recorded Synergy Score inhibition (system: Jeko-1)
*A* A2 (A2=1 to <3)

---

Test system: SU-DHL-10-epst
experiment_description: Combination study, ATPLite 72 h, dose matrix (Synergy Score, CI50)
applied_conditions: combination with Compound 1, 72 h
observed_property: Synergy Score growth inhibition

>>> print(df.to_string())
                                   compound                observed_property  recorded_result
0  CN1CCc2c(c3ccccc3n2Cc2ccc(C(=O)NO)cc2)C1.Cl [Tubastatin A hydrochloride]  Synergy Score growth inhibition       A3 (A3=>3)
1  COc1ccc(-c2ccc3c(N4CCOC[C@@H]4C)nc(N4CCOC[C@@H]4C)nc3n2)cc1CO  Synergy Score growth inhibition       A3 (A3=>3)
2  NC1(c2ccc(-c3nc4ccn5c(=O)[nH]nc5c4cc3-c3ccccc3)cc2)CCC1  Synergy Score growth inhibition       A3 (A3=>3)

---

Tested on: DOHH-2
experiment_description: Combination study, ATPLite 72 h, dose matrix (Synergy Score, CI50)
applied_conditions: combination with Compound 1, 72 h
observed_property: CI50 growth inhibition

structure_string	recorded_result
CO[C@H]1C[C@@H]2CC[C@@H](C)[C@@](O)(O2)C(=O)C(=O)N2CCCC[C@H]2C(=O)O[C@H]([C@H](C)C[C@@H]2CC[C@@H](OCCO)[C@H](OC)C2)CC(=O)[C@H](C)/C=C(\C)[C@@H](O)[C@@H](OC)C(=O)[C@H](C)C[C@H](C)/C=C/C=C/C=C/1C	S (S=0.01 to <0.5)
C[C@@H]1C[C@H]2[C@@H]3CCC4=CC(=O)C=C[C@]4(C)[C@@]3(F)[C@@H](O)C[C@]2(C)[C@@]1(O)C(=O)CO	S (S=0.01 to <0.5)

---

System: GRANTA-519
experiment_description: Combination study, ATPLite 72 h, dose matrix (Synergy Score, CI50)
applied_conditions: combination with Compound 1
Counter-ions that a name gives are not always drawn.
observed_property: CI50 growth inhibition

compound	recorded_result
C[C@@H]1C[C@H]2[C@@H]3CCC4=CC(=O)C=C[C@]4(C)[C@@]3(F)[C@@H](O)C[C@]2(C)[C@@]1(O)C(=O)CO [dexamethasone]	S (S=0.01 to <0.5)
CO[C@H]1C[C@@H]2CC[C@@H](C)[C@@](O)(O2)C(=O)C(=O)N2CCCC[C@H]2C(=O)O[C@H]([C@H](C)C[C@@H]2CC[C@@H](OCCO)[C@H](OC)C2)CC(=O)[C@H](C)/C=C(\C)[C@@H](O)[C@@H](OC)C(=O)[C@H](C)C[C@H](C)/C=C/C=C/C=C/1C [everolimus]	S (S=0.01 to <0.5)
CC(C)C[C@H](NC(=O)[C@H](CCc1ccccc1)NC(=O)CN1CCOCC1)C(=O)N[C@@H](Cc1ccccc1)C(=O)N[C@@H](CC(C)C)C(=O)[C@@]1(C)CO1 [carfilzomib]	T (T=0.5 to <0.7)
CCCCCCCCCCCCCCCCCCOP(=O)([O-])OC1CC[N+](C)(C)CC1 [perifosine]	S (S=0.01 to <0.5)
CC(=O)Nc1cccc(-n2c(=O)n(C3CC3)c(=O)c3c(Nc4ccc(I)cc4F)n(C)c(=O)c(C)c32)c1 [trametinib]	S (S=0.01 to <0.5)
COc1cccc2c1C(=O)c1c(O)c3c(c(O)c1C2=O)C[C@@](O)(C(=O)CO)C[C@@H]3O[C@H]1C[C@H](N)[C@H](O)[C@H](C)O1 [Doxorubicin HCl]	S (S=0.01 to <0.5)

*Q* For the compound shown here, CC(C)C[C@H](NC(=O)[C@H](Cc1ccccc1)NC(=O)c1cnccn1)B(O)O [bortezomib] , give the reported CI50 growth inhibition.
*A* T (T=0.5 to <0.7)

*Q* Given the entry CS(=O)(=O)N1CCN(Cc2cc3nc(-c4cccc5[nH]ncc45)nc(N4CCOCC4)c3s2)CC1 [GDC-0941] , report its measured CI50 growth inhibition.
*A* S (S=0.01 to <0.5)

---

Tested on: WSU-NHL
experiment_description: Combination study, ATPLite 72 h, dose matrix (Synergy Score, CI50)
applied_conditions: combination with Compound 1, 72 h
Counter-ions that a name gives are not always drawn.
observed_property: CI50 inhibition

compound	subject_of_test	recorded_result
Nc1ncn([C@@H]2O[C@H](CO)[C@@H](O)[C@H]2O)c(=O)n1	WSU-NHL	S (S=0.01 to <0.5)
Nc1cccc2c1CN(C1CCC(=O)NC1=O)C2=O (stereo not drawn) [lenalidomide]	WSU-NHL	S (S=0.01 to <0.5)
CS(=O)(=O)N1CCN(Cc2cc3nc(-c4cccc5[nH]ncc45)nc(N4CCOCC4)c3s2)CC1	WSU-NHL	T (T=0.5 to <0.7)
O=C(Nc1ccc2[nH]nc(-c3ccncc3)c2c1)[C@@H]1CCN(CC(=O)N2CCN(c3ccc(-c4ncccn4)cc3)CC2)C1	WSU-NHL	U (U=0.7 to <1)
CC(C)C[C@H](NC(=O)[C@H](CCc1ccccc1)NC(=O)CN1CCOCC1)C(=O)N[C@@H](Cc1ccccc1)C(=O)N[C@@H](CC(C)C)C(=O)[C@@]1(C)CO1	WSU-NHL	U (U=0.7 to <1)

*Q* Form field - read-out: CI50 inhibition; system: WSU-NHL; submitted item: CO[C@H]1C[C@@H]2CC[C@@H](C)[C@@](O)(O2)C(=O)C(=O)N2CCCC[C@H]2C(=O)O[C@H]([C@H](C)C[C@@H]2CC[C@@H](OCCO)[C@H](OC)C2)CC(=O)[C@H](C)/C=C(\C)[C@@H](O)[C@@H](OC)C(=O)[C@H](C)C[C@H](C)/C=C/C=C/C=C/1C
*A* S (S=0.01 to <0.5)

*Q* Write down the reported CI50 inhibition of CCCCCCCCCCCCCCCCCCOP(=O)([O-])OC1CC[N+](C)(C)CC1 , test system: WSU-NHL.
*A* T (T=0.5 to <0.7)

*Q* API: value(readout= CI50 inhibition, system= WSU-NHL, query= COc1ccc(-c2ccc3c(N4CCOC[C@@H]4C)nc(N4CCOC[C@@H]4C)nc3n2)cc1CO )
*A* S (S=0.01 to <0.5)

*Q* Please provide the recorded CI50 inhibition for CN1CCc2c(c3ccccc3n2Cc2ccc(C(=O)NO)cc2)C1.Cl [Tubastatin A hydrochloride] , tested on WSU-NHL.
*A* T (T=0.5 to <0.7)

*Q* Notebook: pull reported CI50 inhibition for WSU-NHL, entry COc1cccc2c1C(=O)c1c(O)c3c(c(O)c1C2=O)C[C@@](O)(C(=O)CO)C[C@@H]3O[C@H]1C[C@H](N)[C@H](O)[C@H](C)O1 [Doxorubicin HCl]
*A* S (S=0.01 to <0.5)

*Q* Fill in the recorded CI50 inhibition for this compound, with WSU-NHL as test system: CC(C)C[C@H](NC(=O)[C@H](Cc1ccccc1)NC(=O)c1cnccn1)B(O)O
*A* U (U=0.7 to <1)

*Q* # value lookup — system WSU-NHL, readout CI50 inhibition, item CC(=O)Nc1cccc(-n2c(=O)n(C3CC3)c(=O)c3c(Nc4ccc(I)cc4F)n(C)c(=O)c(C)c32)c1
*A* S (S=0.01 to <0.5)

*Q* CI50 inhibition of NC1(c2ccc(-c3nc4ccn5c(=O)[nH]nc5c4cc3-c3ccccc3)cc2)CCC1 on WSU-NHL?
*A* S (S=0.01 to <0.5)

*Q* Entry O=C(NOC[C@H](O)CO)c1ccc(F)c(F)c1Nc1ccc(I)cc1F , system WSU-NHL: what CI50 inhibition was measured?
*A* S (S=0.01 to <0.5)

*Q* What measured CI50 inhibition is associated with C[C@@H]1C[C@H]2[C@@H]3CCC4=CC(=O)C=C[C@]4(C)[C@@]3(F)[C@@H](O)C[C@]2(C)[C@@]1(O)C(=O)CO on WSU-NHL?
*A* T (T=0.5 to <0.7)
